Biological target: CDK12 (Homo sapiens)
Construct: endogenous in cells; host or cells: CAL-120 human breast cancer cells (DSMZ ACC 459)
Sequence (Q9NYV4 whole entry): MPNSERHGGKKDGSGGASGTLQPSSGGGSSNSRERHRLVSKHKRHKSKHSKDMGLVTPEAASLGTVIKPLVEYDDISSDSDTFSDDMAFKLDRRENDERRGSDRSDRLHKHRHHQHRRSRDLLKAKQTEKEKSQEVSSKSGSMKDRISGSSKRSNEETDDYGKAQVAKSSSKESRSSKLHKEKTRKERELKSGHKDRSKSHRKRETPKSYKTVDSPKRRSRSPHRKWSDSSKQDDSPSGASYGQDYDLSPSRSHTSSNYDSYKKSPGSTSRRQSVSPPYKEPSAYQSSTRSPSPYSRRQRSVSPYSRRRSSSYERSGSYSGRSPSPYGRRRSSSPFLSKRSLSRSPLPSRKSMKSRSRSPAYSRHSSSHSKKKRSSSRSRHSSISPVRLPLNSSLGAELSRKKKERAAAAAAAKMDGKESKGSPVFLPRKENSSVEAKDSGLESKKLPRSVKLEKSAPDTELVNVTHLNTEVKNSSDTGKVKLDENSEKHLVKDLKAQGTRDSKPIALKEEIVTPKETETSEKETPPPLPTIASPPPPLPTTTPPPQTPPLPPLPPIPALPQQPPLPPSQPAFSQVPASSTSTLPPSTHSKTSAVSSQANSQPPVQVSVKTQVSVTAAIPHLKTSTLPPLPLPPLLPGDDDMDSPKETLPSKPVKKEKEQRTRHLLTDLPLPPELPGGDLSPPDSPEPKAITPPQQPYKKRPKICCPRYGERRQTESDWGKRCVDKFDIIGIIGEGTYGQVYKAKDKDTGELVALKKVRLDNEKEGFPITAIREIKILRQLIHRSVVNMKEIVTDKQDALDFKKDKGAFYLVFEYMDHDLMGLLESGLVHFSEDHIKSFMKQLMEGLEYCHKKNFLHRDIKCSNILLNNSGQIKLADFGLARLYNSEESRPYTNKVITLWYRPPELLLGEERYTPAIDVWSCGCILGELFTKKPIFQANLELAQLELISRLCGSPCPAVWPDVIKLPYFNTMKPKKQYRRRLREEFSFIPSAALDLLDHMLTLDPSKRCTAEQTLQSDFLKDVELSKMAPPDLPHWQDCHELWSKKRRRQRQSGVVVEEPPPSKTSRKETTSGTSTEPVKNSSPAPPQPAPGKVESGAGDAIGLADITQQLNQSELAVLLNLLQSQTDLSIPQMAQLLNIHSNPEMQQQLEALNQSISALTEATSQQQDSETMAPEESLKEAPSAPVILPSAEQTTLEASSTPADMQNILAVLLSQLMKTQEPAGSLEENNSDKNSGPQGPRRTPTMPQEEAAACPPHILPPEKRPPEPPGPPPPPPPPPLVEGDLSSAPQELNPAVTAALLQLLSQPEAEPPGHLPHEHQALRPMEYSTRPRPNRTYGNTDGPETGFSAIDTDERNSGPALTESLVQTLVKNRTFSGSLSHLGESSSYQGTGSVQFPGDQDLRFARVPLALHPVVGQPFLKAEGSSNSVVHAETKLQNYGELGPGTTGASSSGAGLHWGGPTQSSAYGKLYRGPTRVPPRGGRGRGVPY
Sequence (O75909 whole entry partner): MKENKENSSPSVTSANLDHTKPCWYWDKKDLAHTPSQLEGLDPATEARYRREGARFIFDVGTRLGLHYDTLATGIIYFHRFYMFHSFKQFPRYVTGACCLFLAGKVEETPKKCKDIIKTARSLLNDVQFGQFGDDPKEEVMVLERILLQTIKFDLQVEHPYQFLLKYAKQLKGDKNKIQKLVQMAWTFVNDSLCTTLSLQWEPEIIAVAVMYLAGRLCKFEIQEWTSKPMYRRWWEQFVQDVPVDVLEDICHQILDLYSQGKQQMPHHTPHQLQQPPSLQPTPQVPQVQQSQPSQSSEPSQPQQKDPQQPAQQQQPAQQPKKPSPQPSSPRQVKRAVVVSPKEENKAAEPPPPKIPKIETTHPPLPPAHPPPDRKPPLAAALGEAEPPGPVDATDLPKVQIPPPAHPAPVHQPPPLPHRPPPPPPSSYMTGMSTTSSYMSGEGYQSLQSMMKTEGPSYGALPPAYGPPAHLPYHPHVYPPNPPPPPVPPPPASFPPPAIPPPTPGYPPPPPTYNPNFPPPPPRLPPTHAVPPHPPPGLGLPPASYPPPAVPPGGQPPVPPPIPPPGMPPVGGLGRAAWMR
Assay: CDK12 nuclear protein level: immunofluorescence/high content analysis in CAL-120 cells
Type: cell-based
Conditions: CAL-120 cells, 24 h, nuclear CDK12 staining; read-out: CDK12 degradation IF DC50-[mol/l] (median)
Description: In the context of the present invention, the term “DC50 CDK12” refers to the DC50 values obtained according to the assay described in this section (6) herein below, i.e. the DC50 values for the degradation of CDK12. CAL-120 human breast cancer cells (DSMZ ACC 459) are seeded in 1536-well microtiter plates (800 cells per well) containing 50 nanoL of compounds in Dose-Response. Control wells received DMSO or Reference Example 1. […]
assayEndpoint: DC50 (nM)

Solved entries:
[[record]]
structurestring = "COc1cccc2[nH]c(CNc3nc(N4C[C@@H](C)N[C@@H](C)C4)nn4c(Br)cnc34)nc12"
assayendpoint = "DC50"
unitlabel = "nM"
recordednumber = 0.495

[[record]]
structurestring = "Fc1cccc2[nH]c(CNc3nc(N4CCOCC4)nn4c(Br)cnc34)nc12"
assayendpoint = "DC50"
unitlabel = "nM"
recordednumber = 4.35

[[record]]
structurestring = "CN1CCN(c2nc(NCc3nc4c(F)c(F)ccc4[nH]3)c3ncc(C(F)(F)F)n3n2)CC1"
assayendpoint = "DC50"
unitlabel = "nM"
recordednumber = 0.58


[A] N#Cc1cnc2c(NCc3nc4ccccc4[nH]3)nc(N3CCOCC3)nn12
[B] Fc1ccc2[nH]c(CNc3nc(N4CCNCC4)nn4c(Br)cnc34)nc2c1F
Which record would sort first by descending DC50, A or B ? Provide the label of your selected option as the answer.
A

These data points were gathered from patent US20230106032A1.
